Data provenance is PubChem BioAssay.

# target.of.assay: Albumin (Bos taurus)
# test: bovine serum albumin binders on microarray, profiling panel, artefact control for SMM control protein annotation, biochemical, small-molecule microarray, Alexa647 label, 635/667 nm fluorescence (AID 1118);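 note: score merges 667 nm emission intensity and signal-to-noise per printed compound spot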
# condition: BSA-A647 binding, fluorescence 635 nm, higher = more signal
Below is a list of entries, each paired with its recorded composite z-score value.

Some solved entries appear below for comparison.
[[record]]
molecule = "C=CCC(OC(C)=O)[C@@H]1[C@@H](N(Cc2cccc3ccccc23)C(=O)c2cccc3ccccc23)c2cc(OCCCO)ccc2N1C(=O)c1ccc(-c2ccccc2)cc1 (stereo partly drawn)"
result = -0.0704

[[record]]
molecule = "O=C1O[C@H](c2ccccc2)[C@H](c2ccccc2)N2[C@H]1[C@@H](C(=O)O)[C@]1(C(=O)Nc3ccc(C#CC4=CCCCC4)cc31)[C@H]2c1ccc(O)cc1"
result = 0.562

[[record]]
molecule = "O=C1C=C(c2ccccc2)C(=O)c2ccc([C@H]3Oc4ccccc4S(=O)(=O)N4CCC[C@@H]34)cc21"
result = -0.878

[[record]]
molecule = "CO[C@]12C=C(Br)[C@@H](C[C@@H]1c1cccc(C)c1)[C@@]1(CO1)C2=O"
result = 0.223


The measured composite z-score associated with `C=CC[C@@]1(C(=O)N2CCOCC2)N=C(c2ccc(OCCCO)cc2)O[C@@H]1c1ccccc1CN=[N+]=[N-]` reads 0.774

`C=CCN1Cc2ccccc2[C@H]2OC(c3ccc(OCCCO)cc3)=N[C@@]2(CC=C)C1=O` has a reported composite z-score of -0.405

// composite z-score value for `COCCCNC(=O)[C@@]1(Sc2ccc(C)cc2)CC(=O)N(C2CCCCC2)[C@@H]1c1ccc(CO)cc1` : -0.111

Lab note: measured composite z-score of `[N-]=[N+]=Nc1ccccc1C[C@]1(C(N)=O)N=C(c2ccc(OCCCO)cc2)O[C@H]1c1ccccc1N=[N+]=[N-]` was 0.92
